Tested on: SUP-M2 (T-Cell Non-Hodgkin's Lymphoma)
assay protocol: combination Emax (second highest fraction inhibited in the dose matrix, 72 h); higher = more inhibition; extreme values may be limits of the assay
measurement kind: combination Emax

- CC1(C)CCC(CN2CCN(c3ccc(C(=O)NS(=O)(=O)c4ccc(NCC5CCOCC5)c([N+](=O)[O-])c4)c(Oc4cnc5[nH]ccc5c4)c3)CC2)=C(c2ccc(Cl)cc2)C1 [Venetoclax] + C[C@@H](Nc1cc(F)cc(F)c1)c1cc(C(=O)N(C)C)cc2c(=O)cc(N3CCOCC3)oc12 [AZD8186] (first compound max 1 µM, 7x7, partner max 3 µM): 0.344
- Cc1c2c(nn1C)CSCc1cc(n(C)n1)CSc1cc(c3ccccc3c1)OCCCc1c(C(=O)O)n(C)c3c-2c(Cl)ccc13 [AZD5991] + C=CCn1c(=O)c2cnc(Nc3ccc(N4CCN(C)CC4)cc3)nc2n1-c1cccc(C(C)(C)O)n1 [AZD1775] (first compound max 1 µM, partner max 1 µM): 1
- CC1(C)CCC(CN2CCN(c3ccc(C(=O)NS(=O)(=O)c4ccc(NCC5CCOCC5)c([N+](=O)[O-])c4)c(Oc4cnc5[nH]ccc5c4)c3)CC2)=C(c2ccc(Cl)cc2)C1 [Venetoclax] + CCN(CCO)CCCOc1ccc2c(Nc3cc(CC(=O)Nc4cccc(F)c4)[nH]n3)ncnc2c1 [AZD2811] (first compound max 1 µM, 7x7, partner max 1 µM): 0.898

###

# Bliss excess per record follows
Tested on: SK-N-SH (Neuroblastoma);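 also: after 72 h of two-drug dosing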
assay protocol: Bliss excess, mean over the matrix (fraction); higher = more synergy
measurement kind: Bliss excess

* CC(=O)c1c(C)c2cnc(Nc3ccc(N4CCNCC4)cn3)nc2n(C2CCCC2)c1=O [Palbociclib] + Cn1cnc2c(F)c(Nc3ccc(Br)cc3Cl)c(C(=O)NOCCO)cc21 [Selumetinib] (first compound max 10 µM, 7x7, partner max 10 µM) | -0.0238
* Cc1c2c(nn1C)CSCc1cc(n(C)n1)CSc1cc(c3ccccc3c1)OCCCc1c(C(=O)O)n(C)c3c-2c(Cl)ccc13 [AZD5991] + C[C@@H]1COCCN1C2=NC(=NC(=C2)C3(CC3)[S@](=N)(=O)C)C4=C5C=CNC5=NC=C4 [AZD6738] (first compound max 1 µM, 7x7, partner max 10 µM) | -0.0225
* CN(CCO)CC[C@H](CSc1ccccc1)Nc1ccc(S(=O)(=O)NC(=O)c2ccc(N3CCC([C@@H](O)c4ccccc4-c4ccc(Cl)cc4)CC3)cc2)cc1S(=O)(=O)C(F)(F)F [AZD4320] + Nc1ccn([C@@H]2O[C@H](CO)[C@@H](O)C2(F)F)c(=O)n1 [Gemcitabine] (first compound max 1 µM, 7x7, partner max 0.3 µM) | 0.0106
* CC1(C)CCC(CN2CCN(c3ccc(C(=O)NS(=O)(=O)c4ccc(NCC5CCOCC5)c([N+](=O)[O-])c4)c(Oc4cnc5[nH]ccc5c4)c3)CC2)=C(c2ccc(Cl)cc2)C1 [Venetoclax] + C1CN(CCC1(C(=O)N[C@@H](CCO)C2=CC=C(C=C2)Cl)N)C3=NC=NC4=C3C=CN4 [Capivasertib] (first compound max 1 µM, 7x7, partner max 3 µM) | -0.0998
* Cn1cnc2c(F)c(Nc3ccc(Br)cc3Cl)c(C(=O)NOCCO)cc21 [Selumetinib] + CCN(CCO)CCCOc1ccc2c(Nc3cc(CC(=O)Nc4cccc(F)c4)[nH]n3)ncnc2c1 [AZD2811] (first compound max 10 µM, 7x7, partner max 1 µM) | -0.0557
* Cc1c2c(nn1C)CSCc1cc(n(C)n1)CSc1cc(c3ccccc3c1)OCCCc1c(C(=O)O)n(C)c3c-2c(Cl)ccc13 [AZD5991] + CCN(CCO)CCCOc1ccc2c(Nc3cc(CC(=O)Nc4cccc(F)c4)[nH]n3)ncnc2c1 [AZD2811] (first compound max 1 µM, 7x7, partner max 1 µM) | -0.068
* COc1cccc(OCCCN)c1-c1cc(Nc2cnc(C#N)cn2)n[nH]1 [Prexasertib] + CCc1c2c(nc3ccc(O)cc13)-c1cc3c(c(=O)n1C2)COC(=O)[C@]3(O)CC [SN-38] (first compound max 1 µM, 7x7, partner max 0.3 µM) | -0.0778
* CCc1c2c(nc3ccc(O)cc13)-c1cc3c(c(=O)n1C2)COC(=O)[C@]3(O)CC [SN-38] + O=C(c1cc(Cc2n[nH]c(=O)c3ccccc23)ccc1F)N1CCN(C(=O)C2CC2)CC1 [Olaparib] (first compound max 0.3 µM, 7x7, partner max 10 µM) | 0.0739
* O=C(c1cc(Cc2n[nH]c(=O)c3ccccc23)ccc1F)N1CCN(C(=O)C2CC2)CC1 [Olaparib] + CC1(C)CCC(CN2CCN(c3ccc(C(=O)NS(=O)(=O)c4ccc(NCC5CCOCC5)c([N+](=O)[O-])c4)c(Oc4cnc5[nH]ccc5c4)c3)CC2)=C(c2ccc(Cl)cc2)C1 [Venetoclax] (first compound max 10 µM, 7x7, partner max 1 µM) | 0.0412
* Cc1c2c(nn1C)CSCc1cc(n(C)n1)CSc1cc(c3ccccc3c1)OCCCc1c(C(=O)O)n(C)c3c-2c(Cl)ccc13 [AZD5991] + CS(=O)(=O)CCNCc1ccc(-c2ccc3ncnc(Nc4ccc(OCc5cccc(F)c5)c(Cl)c4)c3c2)o1 [Lapatinib] (first compound max 1 µM, 7x7, partner max 10 µM) | 0.0615
* CCN(CCO)CCCOc1ccc2c(Nc3cc(CC(=O)Nc4cccc(F)c4)[nH]n3)ncnc2c1 [AZD2811] + O=C(c1cc(Cc2n[nH]c(=O)c3ccccc23)ccc1F)N1CCN(C(=O)C2CC2)CC1 [Olaparib] (first compound max 1 µM, 7x7, partner max 10 µM) | -0.0701
* CC1(C)CCC(CN2CCN(c3ccc(C(=O)NS(=O)(=O)c4ccc(NCC5CCOCC5)c([N+](=O)[O-])c4)c(Oc4cnc5[nH]ccc5c4)c3)CC2)=C(c2ccc(Cl)cc2)C1 [Venetoclax] + Cn1cnc2c(F)c(Nc3ccc(Br)cc3Cl)c(C(=O)NOCCO)cc21 [Selumetinib] (first compound max 1 µM, 7x7, partner max 3 µM) | 0.083
* COc1nnc2ccc(N3CCC(c4ccc(OCCN5CCN(C)C(=O)[C@H]5C)cc4)CC3)nn12 [AZD5153] + Cc1c2c(nn1C)CSCc1cc(n(C)n1)CSc1cc(c3ccccc3c1)OCCCc1c(C(=O)O)n(C)c3c-2c(Cl)ccc13 [AZD5991] (first compound max 1 µM, 7x7, partner max 1 µM) | -0.0334
